Hello, the source for this data is patent US20100249071A1, in case you need it.

- System name: S1P3 (Homo sapiens)
- Construct: host or cells: HEK293 (transient transfection)
- Sequence (P32121 whole entry): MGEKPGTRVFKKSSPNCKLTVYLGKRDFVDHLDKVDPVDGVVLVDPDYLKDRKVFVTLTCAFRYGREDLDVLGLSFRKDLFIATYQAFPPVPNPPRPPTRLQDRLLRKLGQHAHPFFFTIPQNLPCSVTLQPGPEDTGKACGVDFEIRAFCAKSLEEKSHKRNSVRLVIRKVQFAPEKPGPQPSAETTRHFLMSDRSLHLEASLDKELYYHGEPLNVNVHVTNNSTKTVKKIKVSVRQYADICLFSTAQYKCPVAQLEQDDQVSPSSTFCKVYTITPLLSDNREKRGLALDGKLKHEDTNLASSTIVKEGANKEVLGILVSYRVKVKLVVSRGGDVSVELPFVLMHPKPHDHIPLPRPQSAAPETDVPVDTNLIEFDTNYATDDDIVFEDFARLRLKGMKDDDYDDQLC
- Sequence (Q99500 whole entry): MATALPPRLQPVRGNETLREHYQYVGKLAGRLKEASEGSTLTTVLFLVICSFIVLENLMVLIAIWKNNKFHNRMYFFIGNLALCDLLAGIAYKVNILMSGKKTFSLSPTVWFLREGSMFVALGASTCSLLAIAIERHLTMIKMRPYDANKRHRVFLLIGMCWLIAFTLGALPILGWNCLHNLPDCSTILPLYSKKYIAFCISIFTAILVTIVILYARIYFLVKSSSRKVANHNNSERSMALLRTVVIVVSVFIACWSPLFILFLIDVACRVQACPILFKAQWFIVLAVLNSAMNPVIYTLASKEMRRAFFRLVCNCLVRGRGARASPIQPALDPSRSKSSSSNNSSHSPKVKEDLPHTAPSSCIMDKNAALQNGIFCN
- Experiment description: S1P3 Tango β-arrestin recruitment assay in HEK293 cells (Assay 5)
- Type: cell-based
- Cond: read-out: Assay 5 EC50
Measure: EC50

The following compounds have reported results that may help.
>>> endpoint_result("CC(C)Oc1ccc(-c2nnc(-c3cc(F)c(OC[C@H](N)[C@H](C)O)cc3Cl)s2)cc1Cl [Entry 72]")
"> 10 µM"
>>> endpoint_result("CCOc1ccc(-c2nnc(-c3cc(F)c(OC[C@H](N)CO)cc3Cl)s2)cc1Cl [Entry 25]")
"> 10 µM"
>>> endpoint_result("CC(C)N(C)c1ccc(-c2nnc(-c3cc(F)c(OCC(N)CO)cc3Cl)s2)cn1 (centres unmarked) [Entry 36]")
"≤ 0.25 µM"
>>> endpoint_result("CC(C)N(C)c1cc(-c2nnc(-c3cc(F)c(OCC(N)CO)cc3Cl)s2)ccn1 (centres unmarked) [Entry 41]")
"> 10 µM"
>>> endpoint_result("Cc1cc(-c2nnc(-c3cc(F)c(OC[C@H](N)[C@H](C)OP(=O)(O)O)cc3Cl)s2)cc(NC(C)C)n1 [Entry 95]")
"> 0.25 µM"

Read off the recorded EC50 for CC(C)Oc1ccc(-c2nnc(-c3cc(F)c(OC[C@@H](N)[C@H](C)O)cc3Cl)s2)cc1Cl [Entry 71] ≤ 0.25 µM

Read off the recorded EC50 for CC(C)N(C)c1cc(-c2nnc(-c3cc(F)c(OC[C@@H](N)CO)cc3Cl)s2)cc(Cl)n1 [Entry 31] ≤ 0.25 µM

Read off the recorded EC50 for CC(C)N(C)c1cc(-c2nnc(-c3cc(F)c(OC[C@H](N)CO)cc3Cl)s2)cc(Cl)n1 [Entry 21] > 10 µM

###

- System name: S1P3 (Homo sapiens)
- Construct: host or cells: HEK293 (transient transfection)
- Experiment description: S1P3 Tango β-arrestin recruitment assay in HEK293 cells (Assay 5)
- Format: cell-based
- Cond: read-out: Assay 5 EC50
Measure: EC50

>>> endpoint_result("CC(C)Nc1ccc(-c2nnc(-c3cc(F)c(OC[C@H](N)[C@H](C)OP(=O)(O)O)cc3Cl)s2)cn1")
"> 0.25 µM"
>>> endpoint_result("CC(C)Nc1ccc(-c2nnc(-c3cc(F)c(OC[C@H](N)CO)cc3Cl)s2)cc1Cl")
"> 10 µM"
>>> endpoint_result("CC(C)Oc1ccc(-c2nnc(-c3cc(F)c(OC[C@H](N)CO)cc3Cl)s2)cc1C#N")
"> 10 µM"
>>> endpoint_result("CC(C)Nc1cc(-c2nnc(-c3cc(F)c(OC[C@H](N)[C@@H](C)O)cc3Cl)s2)ccn1")
"> 10 µM"
>>> endpoint_result("CC(C)Cc1ccc(-c2nnc(-c3cc(F)c(OC[C@H](N)CO)cc3Cl)s2)cc1")
"> 10 µM"

Read off the recorded EC50 for `CC(C)Nc1ncc(-c2nnc(-c3cc(F)c(OC[C@H](N)[C@@H](C)O)cc3Cl)s2)cc1Cl` > 10 µM

Read off the recorded EC50 for `Cc1cc(NC(C)C)cc(-c2nnc(-c3cc(F)c(OC[C@H](N)[C@H](C)O)cc3Cl)s2)n1` > 0.25 µM

Read off the recorded EC50 for `CC(C)Oc1ccc(-c2nnc(-c3cc(F)c(OC[C@H](N)COP(=O)(O)O)cc3Cl)s2)cc1C#N` ≤ 0.25 µM
